Assignment: determine reported thallium flux rate (normalised fluorescence) for the given compounds.
- procedure text: thallium flux modulation in parental HEK cells, confirmation, counter-screen for KCC2 modulator project, cell-based, counterscreen 1 (AID 1716)
- experimental context: HEK293 parental cells, thallium flux FluoZin2, ouabain; at 10 µM; baseline-ratio fluorescence slope, 10–20 s after thallium
The other results are listed elsewhere or left out. Inconclusive results are not listed.
Enter a number only.

Exam item: Requested read-out: thallium flux rate (normalised fluorescence). Entry: O=C(Nc1ccn(Cc2ccccc2)n1)c1cccc(F)c1
Marked response: 0.00698

Exam item: Requested read-out: thallium flux rate (normalised fluorescence). Entry: Cc1nc(SCC(=O)N2CCc3ccccc3C2)c2c(C)c(C)sc2n1
Marked response: 0.00764

Exam item: Requested read-out: thallium flux rate (normalised fluorescence). Entry: NS(=O)(=O)c1ccc(NC(=S)NC(=O)c2cccnc2)cc1
Marked response: 0.00846

Exam item: Requested read-out: thallium flux rate (normalised fluorescence). Entry: CCCC(=O)N1c2ccccc2NC2=C(C(=O)CCC2)C1c1ccc(F)cc1 (stereo not drawn)
Marked response: 0.0072

Exam item: Requested read-out: thallium flux rate (normalised fluorescence). Entry: Cc1ccccc1N/N=C/c1ccc(N2CCOCC2)cc1
Marked response: 0.00826

Exam item: Requested read-out: thallium flux rate (normalised fluorescence). Entry: O=S(=O)(c1ccc(F)cc1)N1CCN(C(=S)NCc2ccco2)CC1
Marked response: 0.00396

Exam item: Requested read-out: thallium flux rate (normalised fluorescence). Entry: Cc1ccc(OCc2n[nH]c(=S)n2-c2ccc(C)cc2)cc1
Marked response: 0.0134

Exam item: Requested read-out: thallium flux rate (normalised fluorescence). Entry: CC/S(CC1CC1(Cl)Cl)=N\S(=O)(=O)c1ccc(C)cc1 (stereo not drawn)
Marked response: 0.00744

Exam item: Requested read-out: thallium flux rate (normalised fluorescence). Entry: CC[C@@H](C)[C@@H](C(=O)N1CCN(C(=O)OC(C)(C)C)CC1)n1cc(CCC(=O)O)nn1
Marked response: 0.00923

Exam item: Requested read-out: thallium flux rate (normalised fluorescence). Entry: Cc1ccc(Nc2nnc(SCC(=O)c3cc4ccccc4o3)s2)cc1C
Marked response: 0.00694

Exam item: Requested read-out: thallium flux rate (normalised fluorescence). Entry: COc1ccc(C(=O)NN(C)c2nc(-c3ccccc3)cc(C)c2S(C)(=O)=O)cc1
Marked response: 0.00831

Exam item: Requested read-out: thallium flux rate (normalised fluorescence). Entry: CSc1sc(C(=O)NNC(=O)c2ccc(Cl)cc2)c2c1C=CCC2
Marked response: 0.0305

Exam item: Requested read-out: thallium flux rate (normalised fluorescence). Entry: COCCNc1nc(-n2nc(C)cc2C)nc2sc3c(c12)CCCC3
Marked response: 0.00524

Exam item: Requested read-out: thallium flux rate (normalised fluorescence). Entry: CCCOC(=O)CC1C(=O)NCCN1Cc1ccc(F)cc1 (stereo not drawn)
Marked response: 0.0066

Exam item: Requested read-out: thallium flux rate (normalised fluorescence). Entry: O=C(COC(=O)c1ccc(Oc2ccccc2)cc1)Nc1nnc(-c2ccccc2)o1
Marked response: 0.0357

Exam item: Requested read-out: thallium flux rate (normalised fluorescence). Entry: COc1ccc(-c2nc(CS(=O)CC(=O)N3CCc4ccccc4C3)c(C)o2)cc1 (stereo not drawn)
Marked response: 0.00707

Exam item: Requested read-out: thallium flux rate (normalised fluorescence). Entry: CCc1c(SCCC(=O)O)nc2ccccc2c1C
Marked response: 0.00913

Exam item: Requested read-out: thallium flux rate (normalised fluorescence). Entry: CC(=O)NNC(=O)c1csc(Cc2c(Cl)sc3ccc(Cl)cc23)n1
Marked response: 0.0146

Exam item: Requested read-out: thallium flux rate (normalised fluorescence). Entry: CCOc1cccc(/C=N/N2C(=O)CSC2=S)c1O
Marked response: 0.0178

Exam item: Requested read-out: thallium flux rate (normalised fluorescence). Entry: CCCCn1c(=S)[nH]c2ccccc2c1=O
Marked response: 0.114

Exam item: Requested read-out: thallium flux rate (normalised fluorescence). Entry: CC(C)CNC(=S)NC(=O)c1ccc(Cl)cc1
Marked response: 0.0685

Exam item: Requested read-out: thallium flux rate (normalised fluorescence). Entry: C=CCNC(=S)N/N=C/c1ccc(C)s1
Marked response: 0.0119

Exam item: Requested read-out: thallium flux rate (normalised fluorescence). Entry: CCCCn1c(SCC(=O)NCC2CCCO2)nc2ccc(N3CCOCC3)cc2c1=O (stereo not drawn)
Marked response: 0.0094

Exam item: Requested read-out: thallium flux rate (normalised fluorescence). Entry: O=C(CN(c1cccc(Cl)c1)S(=O)(=O)c1ccccc1)NN=C1CCCC1
Marked response: 0.00791

Exam item: Requested read-out: thallium flux rate (normalised fluorescence). Entry: S=c1[nH]nc(Nc2ccccc2)s1
Marked response: 0.00742

Exam item: Requested read-out: thallium flux rate (normalised fluorescence). Entry: CCOC(=O)CSc1nnc(CNC(=O)c2cccs2)n1-c1ccccc1
Marked response: 0.00776

Exam item: Requested read-out: thallium flux rate (normalised fluorescence). Entry: O=C(Cn1c(-c2ccc(Cl)cc2)noc1=O)N1CCN(c2ccccc2F)CC1
Marked response: 0.00698

Exam item: Requested read-out: thallium flux rate (normalised fluorescence). Entry: Oc1ccccc1/C=N/n1c(-c2cccs2)n[nH]c1=S
Marked response: 0.0173

Exam item: Requested read-out: thallium flux rate (normalised fluorescence). Entry: CCC(=O)NC(=Nc1nc2ccccc2s1)NC(=O)CC
Marked response: 0.0894

Exam item: Requested read-out: thallium flux rate (normalised fluorescence). Entry: CCOc1ccc(NC(=O)CN(C)CC(=O)Nc2cccc(Cl)c2C)cc1OCC
Marked response: 0.00749

Exam item: Requested read-out: thallium flux rate (normalised fluorescence). Entry: N=c1oc2ccccc2cc1C(=O)N/N=C/c1ccccc1
Marked response: 0.00736

Exam item: Requested read-out: thallium flux rate (normalised fluorescence). Entry: O=C(N/N=C/c1ccc(Br)o1)c1cncc(Br)c1
Marked response: 0.0124

Exam item: Requested read-out: thallium flux rate (normalised fluorescence). Entry: O=C(NNc1ccccc1Cl)C(O)(c1cccc(C(F)(F)F)c1)c1cccc(C(F)(F)F)c1
Marked response: 0.0219

Exam item: Requested read-out: thallium flux rate (normalised fluorescence). Entry: COc1ccc(Oc2c(Cl)cnn(-c3ccccc3)c2=O)cc1
Marked response: 0.00741

Exam item: Requested read-out: thallium flux rate (normalised fluorescence). Entry: Cc1c(C(=O)NC(=S)NCc2cccnc2)oc2ccccc12
Marked response: 0.028

Exam item: Requested read-out: thallium flux rate (normalised fluorescence). Entry: O=[N+]([O-])c1c(NCCO)cc(Sc2nc3ccccc3s2)c2nonc12
Marked response: 0.0134

Exam item: Requested read-out: thallium flux rate (normalised fluorescence). Entry: C/C(=N\NC(=S)NC1CCCCC1)c1ccc(C)o1
Marked response: 0.017

Exam item: Requested read-out: thallium flux rate (normalised fluorescence). Entry: CN1c2ccccc2-c2nc3ccccc3n2C1c1ccco1 (stereo not drawn)
Marked response: 0.00467

* * *

- procedure text: inhibitors of Chlamydomonas gravitaxis, primary screen, whole organism, Chlamydomonas reinhardtii, WT vs cilia-less mutant, absorbance, 96-well (AID 463189);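 note: 0% = wild type cc124 cells in DMSO and 100% = ciliumless bld1 mutant cells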
- experimental context: OD600 absorbance, 2 days, at 10 µM, active compounds read high
Assignment: determine reported inhibition for the given compounds.
Just the number in %, nothing appended.

Exam item: Requested read-out: inhibition. Entry: CCCOc1ccc(N2C(=O)CC(N(CCC)C(=O)CCC(=O)O)C2=O)cc1 (stereo not given)
Marked response: 11.3

Exam item: Requested read-out: inhibition. Entry: CCOC(=O)C1=C(CSc2nc3c(cc2C#N)CCC3)OC(N)=C(C#N)C1c1ccccc1 (stereo not given)
Marked response: 5.98

Exam item: Requested read-out: inhibition. Entry: Cc1cc(C)c(C#N)c(SCc2[nH]nc3c2C(c2ccccc2)C(C#N)=C(N)O3)n1 (stereo not given)
Marked response: 31.6

Exam item: Requested read-out: inhibition. Entry: CCC1CCCCN1c1nc(-c2cccc(OC)c2O)nc2ccccc12 (stereo not given)
Marked response: 3.59

Exam item: Requested read-out: inhibition. Entry: c1ccc(CSc2nnc(SCc3ccccn3)s2)nc1
Marked response: -2.59

Exam item: Requested read-out: inhibition. Entry: CCOC(=O)CSC1=C(C#N)C(c2ccc(OC)cc2)C2=C(CC(C)(C)CC2=O)N1 (stereo not given)
Marked response: 25.7

Exam item: Requested read-out: inhibition. Entry: N#Cc1c(N2CCOCC2)nc(N2CCCCC2)c2c1CCN(C1CCCCC1)C2
Marked response: 2.06

Exam item: Requested read-out: inhibition. Entry: CC(=O)Nc1ccc(S(=O)(=O)Nc2nc3n(n2)C(c2ccccc2)CC(=O)N3)cc1 (stereo not given)
Marked response: -0.258

Exam item: Requested read-out: inhibition. Entry: COc1cccc(C2=CC(c3ccccc3)n3nnnc3N2)c1 (stereo not given)
Marked response: 22.4

Exam item: Requested read-out: inhibition. Entry: CSc1nc(Oc2ccc(=O)[nH]n2)nc(N(C)C)n1
Marked response: 9.17
